Source: paper PMC6943664

Target: human recombinant MAO A (Homo sapiens)
Construct: purchased Sigma Aldrich, Milan, Italy
Sequence (P21397 whole entry): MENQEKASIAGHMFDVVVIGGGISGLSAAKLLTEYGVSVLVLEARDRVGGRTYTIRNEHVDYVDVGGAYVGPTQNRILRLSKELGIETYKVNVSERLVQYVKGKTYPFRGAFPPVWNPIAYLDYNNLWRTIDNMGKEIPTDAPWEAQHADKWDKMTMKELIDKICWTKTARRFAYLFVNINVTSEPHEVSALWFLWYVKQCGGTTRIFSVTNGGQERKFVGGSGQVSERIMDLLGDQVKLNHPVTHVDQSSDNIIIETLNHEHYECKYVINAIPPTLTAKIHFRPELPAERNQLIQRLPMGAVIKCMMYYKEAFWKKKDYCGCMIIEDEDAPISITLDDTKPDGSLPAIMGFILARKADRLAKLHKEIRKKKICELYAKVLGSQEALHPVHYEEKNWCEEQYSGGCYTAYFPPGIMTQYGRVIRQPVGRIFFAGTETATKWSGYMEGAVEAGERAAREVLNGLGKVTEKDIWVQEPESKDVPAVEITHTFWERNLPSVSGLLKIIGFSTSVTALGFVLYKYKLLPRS
Experiment: biochemical
Details: human recombinant MAO; mean ±SEM of three independent experiments; read-out: MAO A IC50
pIC50: −log10 of the molar value.
Assign class by pIC50: not lower than 6 means Yes; lower than 6 means No.

Prompt: Answer whether pIC50 of `CN(C)C(=O)CNCc1cc(=O)oc2cc(OCc3cccc(Cl)c3)ccc12` is greater than or equal to 6.
Response: No

Continuing:
Prompt: In plain terms: is recorded pIC50 at least 6 for `CNCc1cc(=O)oc2cc(OCc3ccccc3)ccc12` ?
Response: Yes

Prompt: Could you please find out whether `NC(=O)CNCc1cc(=O)oc2cc(OCc3cccc(Cl)c3)ccc12` has pIC50 that meets 6 or exceeds it?
Response: Yes

Prompt: Quick check, pIC50 >= 6? `CNC(=O)CNCc1cc(=O)oc2cc(OCc3cccc(Cl)c3)ccc12`
Response: No
